meta.source: patent EP2864333B1

Assignment: determine reported inhibition at 100 µM for the given compounds.
- EXPERIMENTAL SYSTEM: HCV NS5B RdRp (NS5BCdelta21) (Hepatitis C virus genotype 1b, UniProt P26663)
- Construct: 500 ng of NS5BCdelta21; made in house; host or cells: Escherichia coli DH5alpha
- Sequence (P26663 2420-2989): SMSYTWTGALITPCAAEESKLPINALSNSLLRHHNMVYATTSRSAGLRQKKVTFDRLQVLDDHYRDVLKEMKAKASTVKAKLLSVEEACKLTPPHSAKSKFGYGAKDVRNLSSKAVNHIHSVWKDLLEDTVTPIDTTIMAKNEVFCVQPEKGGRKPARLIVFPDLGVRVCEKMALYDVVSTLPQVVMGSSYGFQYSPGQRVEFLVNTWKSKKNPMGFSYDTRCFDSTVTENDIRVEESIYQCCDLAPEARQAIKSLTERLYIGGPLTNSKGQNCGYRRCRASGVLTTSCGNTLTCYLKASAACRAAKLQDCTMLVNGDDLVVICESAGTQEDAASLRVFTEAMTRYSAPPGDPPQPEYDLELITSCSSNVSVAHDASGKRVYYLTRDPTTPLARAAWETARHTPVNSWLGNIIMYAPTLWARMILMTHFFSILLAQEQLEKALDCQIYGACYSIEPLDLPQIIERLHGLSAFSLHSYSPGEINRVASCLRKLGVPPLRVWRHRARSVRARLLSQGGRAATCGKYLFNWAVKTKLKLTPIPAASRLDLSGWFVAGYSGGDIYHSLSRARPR
- ASSAY PROTOCOL: HCV NS5B RNA-dependent RNA polymerase (RdRp) assay, poly rA/U12 primer-dependent elongation
- Assay type: biochemical
- ASSAY CONTEXT: read-out: Anti-NS5B Activity (% Inhibition, 100 µM)
The figure you give is taken to be in %; do not add the unit.

Query :: # return recorded inhibition at 100 µM for input CCc1cccc2c3c([nH]c12)C(CC)(CC(=O)NNC(=S)NC)OCC3 (stereo not drawn)
Result :: 76.2

Query :: Specify reported inhibition at 100 µM for the compound shown: CCc1cccc2c3c([nH]c12)C(CC)(CC(=O)NN=Cc1cccc(F)c1)OCC3 (stereo not drawn)
Result :: 61.6

Query :: Answer with the recorded inhibition at 100 µM for the compound listed here: CCc1cccc2c3c([nH]c12)C(CC)(CC(=O)OC)OCC3 (racemic)
Result :: 6.4

Query :: Report inhibition at 100 µM, nothing else, for this compound: C=CCNC(=S)NNC(=O)CC1(CC)OCCc2c1[nH]c1c(CC)cccc21 (stereo not drawn)
Result :: 78.6

Query :: Name the recorded inhibition at 100 µM of the item CCc1cccc2c3c([nH]c12)C(CC)(Cc1n[nH]c(=S)n1C)OCC3 (stereo not drawn) in your answer.
Result :: 78.9

Query :: Give inhibition at 100 µM for the following compound: CCc1cccc2c3c([nH]c12)C(CC)(CC(=O)NN)OCC3 (stereo not drawn)
Result :: 11.4

* * *

- EXPERIMENTAL SYSTEM: HCV NS5B RdRp (NS5BCdelta21) (Hepatitis C virus genotype 1b, UniProt P26663)
- Construct: 500 ng of NS5BCdelta21; made in house; host or cells: Escherichia coli DH5alpha
- ASSAY PROTOCOL: HCV NS5B RNA-dependent RNA polymerase (RdRp) assay, poly rA/U12 primer-dependent elongation
- Type: biochemical
QUANTITY: pIC50
In textbook form, pIC50 equals minus log to base ten of the concentration in mol/L.

Query :: Recall and state the measured pIC50 for CCc1cccc2c3c([nH]c12)C(CC)(CC(=O)NN=Cc1cccc(F)c1)OCC3 (centres unmarked) .
Result :: 4.44

Query :: Give the reported value of pIC50 for this record: CCc1cccc2c3c([nH]c12)C(CC)(Cc1n[nH]c(=S)n1C)OCC3 (centres unmarked)
Result :: 4.83

* * *

Could you please report measured inhibition at 200 µM for the items listed next?
- EXPERIMENTAL SYSTEM: HCV NS5B RdRp (NS5BCdelta21) (Hepatitis C virus genotype 1b)
- Construct: 500 ng of NS5BCdelta21; made in house; host or cells: Escherichia coli DH5alpha
- ASSAY PROTOCOL: HCV NS5B RNA-dependent RNA polymerase (RdRp) assay, poly rA/U12 primer-dependent elongation
- Type: biochemical
- ASSAY CONTEXT: read-out: Anti-NS5B Activity (% Inhibition, 200 µM)
Reply numerically in %, unit not repeated.

Query :: Given CCc1cccc2c3c([nH]c12)C(CC)(CC(=O)NNC(=S)NC)OCC3 (stereo not drawn) , respond with its inhibition at 200 µM.
Result :: 77.5

Query :: Answer with the recorded inhibition at 200 µM for the compound listed here: C=CCNC(=S)NNC(=O)CC1(CC)OCCc2c1[nH]c1c(CC)cccc21 (stereo not drawn)
Result :: 81.6

Query :: Complete the entry with inhibition at 200 µM for CCc1cccc2c3c([nH]c12)C(CC)(Cc1n[nH]c(=S)n1C)OCC3 (stereo not drawn)
Result :: 86

Query :: // fetch inhibition at 200 µM given entry CCc1cccc2c3c([nH]c12)C(CC)(CC(=O)NN)OCC3 (stereo not drawn)
Result :: 19

Query :: Answer with reported inhibition at 200 µM of CCc1cccc2c3c([nH]c12)C(CC)(CC(=O)OC)OCC3 (racemic)
Result :: 13.3

Query :: Return the recorded inhibition at 200 µM value; entry: CCc1cccc2c3c([nH]c12)C(CC)(CC(=O)NN=Cc1cccc(F)c1)OCC3 (stereo not drawn)
Result :: 66.4

* * *

Provide the reported IC50 of each item.
- EXPERIMENTAL SYSTEM: HCV NS5B RdRp (NS5BCdelta21) (Hepatitis C virus genotype 1b)
- Construct: 500 ng of NS5BCdelta21; made in house; host or cells: Escherichia coli DH5alpha
- ASSAY PROTOCOL: HCV NS5B RNA-dependent RNA polymerase (RdRp) assay, poly rA/U12 primer-dependent elongation
- Type: biochemical
- ASSAY CONTEXT: dose-response curves, 8-10 concentrations, duplicate, two independent experiments; read-out: IC50
- Protocol: The RdRp activity of NS5B was evaluated by the standard primer-dependent elongation reactions employing poly rA/U12 template-primers (TP). […] Reactions were quenched by the addition of ice cold 5% (v/v) trichloroacetic acid (TCA) containing 0.5 mM pyrophosphate (PPi), the denatured polymeric RNA products were transferred to GF-B filters and the amount of radioactive UMP incorporated into RNA products was quantified on a liquid scintillation counter (Packard). […]

Query :: Give the reported IC50 for this compound. CCc1cccc2c3c([nH]c12)C(CC)(CC(=O)NNC(=S)NC)OCC3 (stereo not drawn)
Result :: 18.7 µM

Query :: In one line, give reported IC50 of the entry COc1cc(O)c2c(c1)oc(=O)c1c3cc(O)c(O)cc3oc21 [Wedelolacton, reference compound] .
Result :: 36 µM

Query :: Please list IC50 recorded for the compound C=CCNC(=S)NNC(=O)CC1(CC)OCCc2c1[nH]c1c(CC)cccc21 (stereo not drawn)
Result :: 16.8 µM
